Biological target: σNS (Avian reovirus (strain not given)) (UniProt W8NR44)
Sequence: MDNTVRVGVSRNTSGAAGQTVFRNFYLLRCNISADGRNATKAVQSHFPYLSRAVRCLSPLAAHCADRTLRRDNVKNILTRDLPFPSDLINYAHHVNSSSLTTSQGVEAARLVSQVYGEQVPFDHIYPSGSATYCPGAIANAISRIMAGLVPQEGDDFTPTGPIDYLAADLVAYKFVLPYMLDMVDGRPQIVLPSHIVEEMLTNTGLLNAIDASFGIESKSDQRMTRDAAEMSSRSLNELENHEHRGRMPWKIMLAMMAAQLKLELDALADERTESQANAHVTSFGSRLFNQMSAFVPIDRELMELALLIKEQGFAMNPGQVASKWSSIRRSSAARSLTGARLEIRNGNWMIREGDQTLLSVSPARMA
Experiment: fluorescence anisotropy
I'd appreciate it if you could supply pKd values for the items below.
API: returns pKd as number; meaning -log10 of concentration in mol/L.

Problem: Tell me the measured pKd of UCUUUGCAAACAUGCAAAGA [stable 20mer hairpin] , please.
Solution: 6.86

Problem: And the next one, CUUUUCAAGACAUGCAACAA [unstructured 20mer] ?
Solution: 7.43

Problem: And the next one, CUUCUUUCGAAAUUAAGAAG [metastable 20mer] ?
Solution: 7.62
